Sourced from patent US11618742B2

assay_remarks: Solubility in water
Format: physicochemical
cond: 25° C., RH 65%, 100 g deionized water, added 0.1 g at a time
reported_property: Solubility in 100 parts by mass of water (parts by mass)
Respond numerically; units are parts by mass and should not be typed.

Examples with their reported Solubility in 100 parts by mass of water follow.
INSERT INTO results (molecule, measured_result) VALUES
  ('O=C(O)c1cccc2c(=O)c3ccccc3sc12 [Compound 61]', 1.2),
  ('CC(C)(O)C(=O)c1ccc(OCCO)cc1', 0.8);

Please turn your attention to the following entry.
// Solubility in 100 parts by mass of water lookup, key: O=C(O)c1cccc2c(=O)c3ccccc3sc12 [Compound 1]
0.9
